test: CCTE_Shafer_MEA_dev_correlation_coefficient_mean: CCTE's Neural Network Formation Assay for Mean Correlation Coefficient, Shafer Lab (AID 2284093)
Activity calls are given as the source filed them. Rule for the calls: active = hit-call score of the fitted dose curve at least 0.9, where 1 is the maximum; inactive = score below 0.9.
Allowed answers: class 1 (active), class 0 (inactive)

Challenge: Hello, I am checking results. What call was entered for CC(CNC(=S)[S-])NC(=S)[S-].[Zn+2] (stereo not drawn) ?
Response given: class 1

Challenge: Hello, I am checking results. What call was entered for CCCCCC=C(C)C(CC)CCO (stereo not drawn) ?
Response given: class 0

Challenge: Hello, I am checking results. What call was entered for `CC(=O)N[C@@H](CC(=O)O)C(=O)O` ?
Response given: class 0

Challenge: Hello, I am checking results. What call was entered for `C[C@@H]1CC[C@@H](C(C)(C)O)[C@H](O)C1` ?
Response given: class 0

Challenge: Hello, I am checking results. What call was entered for `CN(C)CCCn1cc(C2=C(c3c[nH]c4ccccc34)C(=O)NC2=O)c2ccccc21` ?
Response given: class 1

Challenge: Hello, I am checking results. What call was entered for `Cc1[nH]n(C)c(=O)c1C(=O)c1ccc(C(F)(F)F)cc1S(C)(=O)=O` ?
Response given: class 0

Challenge: Hello, I am checking results. What call was entered for `c1cc2c3c(c1)ccc1cccc(c13)C2` ?
Response given: class 0

Challenge: Hello, I am checking results. What call was entered for `C[C@@H]1CCO[C@H]2Cn3cc(C(=O)NCc4ccc(F)cc4F)c(=O)c(O)c3C(=O)N12` ?
Response given: class 1

###

experiment: CCTE_Shafer_MEA_dev_per_burst_spike_percent: CCTE's Neural Network Formation Assay for Percent of Spikes in a Burst, Shafer Lab (AID 2284032)
Calls of active or inactive are those of the source. The calls were made as follows: active = hit-call score of the fitted dose curve at least 0.9, where 1 is the maximum; inactive = score below 0.9.
Allowed answers: yes (1) = active, no (0) = inactive

Please review the entries below; each comes with its answer.
compound: c1ccc2c(c1)ccc1c3ccccc3ccc21
cat: no (0)
--
compound: CCc1ccccc1
cat: no (0)

Challenge: Hello, I am checking results. What call was entered for `F` ?
Response given: no (0)

Challenge: Hello, I am checking results. What call was entered for BrC1CC(Br)CC(Br)CC(Br)CC(Br)CC(Br)C1 (centres undefined) ?
Response given: yes (1)

Challenge: Hello, I am checking results. What call was entered for `C[C@@H]1CCO[C@H]2Cn3cc(C(=O)NCc4ccc(F)cc4F)c(=O)c(O)c3C(=O)N12` ?
Response given: yes (1)

Challenge: Hello, I am checking results. What call was entered for `CC(C)O` ?
Response given: yes (1)

Challenge: Hello, I am checking results. What call was entered for CCCCCC=C(C)C(CC)CCO (centres undefined) ?
Response given: no (0)

Challenge: Hello, I am checking results. What call was entered for CC(CNC(=S)[S-])NC(=S)[S-].[Zn+2] (centres undefined) ?
Response given: yes (1)

Challenge: Hello, I am checking results. What call was entered for `Cc1[nH]n(C)c(=O)c1C(=O)c1ccc(C(F)(F)F)cc1S(C)(=O)=O` ?
Response given: no (0)

###

assay: CCTE_Mundy_HCI_Cortical_NOG_NeuriteCount: CCTE's Neurite Outgrowth Assay in rat cortical cells for Neurite Count, Mundy Lab (AID 2284212);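 note: cells fixed about two days after chemical exposure began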
The source made the active and inactive calls. The calls were made as follows: active = hit-call score of the fitted dose curve at least 0.9, where 1 is the maximum; inactive = score below 0.9.
Allowed answers: active, inactive

molecule: CCCCCC=C(C)C(CC)CCO (stereo not given)
cat: inactive
--
molecule: CCCCCC(C)(CC)C(=O)NC (stereo not given)
cat: inactive
--
molecule: CC(C)c1nn(C(=O)NC(C)(C)C)c(=O)n1N
cat: inactive

Challenge: Hello, I am checking results. What call was entered for BrC1CC(Br)CC(Br)CC(Br)CC(Br)CC(Br)C1 (stereo not given) ?
Response given: active

Challenge: Hello, I am checking results. What call was entered for `C[C@@H]1CC[C@@H](C(C)(C)O)[C@H](O)C1` ?
Response given: inactive

Challenge: Hello, I am checking results. What call was entered for `O=C1CC2(CCCC2)CC(=O)N1CCCCN1CCN(c2ncccn2)CC1` ?
Response given: active

Challenge: Hello, I am checking results. What call was entered for `[Li+]` ?
Response given: inactive

Challenge: Hello, I am checking results. What call was entered for `CCc1ccccc1` ?
Response given: inactive

Challenge: Hello, I am checking results. What call was entered for `Cc1[nH]n(C)c(=O)c1C(=O)c1ccc(C(F)(F)F)cc1S(C)(=O)=O` ?
Response given: inactive

Challenge: Hello, I am checking results. What call was entered for CCN(CC)CCCC(C)Nc1nc(C)cc(Nc2ccc3nc(C)cc(N)c3c2)n1 (stereo not given) ?
Response given: inactive
